Documented % Reduction in Viral Load (Range) across a set of compounds
tested on: HCoV-229E; assay: qRT-PCR viral load in supernatants of HCoV-229E-infected MRC-5 cells; assay type: cell-based, Human Coronavirus strain 229E; conditions: HCoV-229E-infected MRC-5, 6 days, range over the assay conc. range

[
  {
    "compound": "NC(=O)c1nc(F)c[nH]c1=O [Favipiravir]",
    "target_entity": "HCoV-229E",
    "% Reduction in Viral Load (Range)": "0.0 to +81.6%"
  },
  {
    "compound": "C[C@@H]1O[C@@H](OC[C@H]2O[C@@H](Oc3c(-c4ccc(O)c(O)c4)oc4cc(O)cc(O)c4c3=O)[C@H](O)[C@@H](O)[C@@H]2O)[C@H](O)[C@H](O)[C@H]1O [Rutin]",
    "target_entity": "HCoV-229E",
    "% Reduction in Viral Load (Range)": "+38.4 to -455.4%"
  }
]

Continue with the next compound.
Kindly note: HCoV-229E, CC(C)c1nc(CN(C)C(=O)N[C@H](C(=O)N[C@@H](Cc2ccccc2)C[C@H](O)[C@H](Cc2ccccc2)NC(=O)OCc2cncs2)C(C)C)cs1 [Ritonavir] , % Reduction in Viral Load (Range) value reported: +73.3 to -625.5%

Where do the numbers come from? From paper PMC9127501.
